Quick list: Inhibition (%) of pressor response to angiotensin I, 55 min per entry.
Test system: pressor response to angiotensin I
runDescription: Inhibition of pressor response to angiotensin I in rats after oral administration
Assay type: in vivo, rat (male Wistar)
testContext: 55 min, angiotensin I 300 ng/kg i.v., dose: 3, 45, 49 1.8 mg/kg, 4, 46 1.3, 50 1.4, 76 2.0, 77 1.5
measuredQuantity: Inhibition (%) of pressor response to angiotensin I, 55 min

>>> print(df.to_string())
                                   compound                      assayedtarget  resultunit  measvalue
0  O=C(SCCC(=O)N1C(c2ccccc2O)SC[C@H]1C(=O)O)c1ccccc1 (stereo partly drawn) [Compound 45]  pressor response to angiotensin I           %       13.5
1  O=C(O)[C@@H]1CSC(c2ccccc2O)N1C(=O)CCS (stereo partly drawn) [Compound 46]  pressor response to angiotensin I           %       49.3
2  COc1ccc(C2SC[C@@H](C(=O)O)N2C(=O)[C@H](C)CS)c(O)c1 (stereo partly drawn) [Compound 77]  pressor response to angiotensin I           %       49.2

Every entry's value here was drawn from patent US4356183A.
